Test system: MCF7
assayProcedure: Cytotoxicity against human MCF7 cells after 72 hrs by MTT colorimetric method
Type: functional, cell-based
measurementContext: MCF7, 72 h
propertyName: IC50
In your response, put the unit directly after the numeric value.

[
  {
    "compound": "COc1cc(OC)c2c(=O)cc(C3(OC)C=CC(=O)C=C3)oc2c1",
    "reportedResult": "4.21 µM"
  },
  {
    "compound": "O=C1C=CC(O)(c2cc(=O)c3c(ccc4ccccc43)o2)C=C1",
    "reportedResult": "0.66 µM"
  },
  {
    "compound": "O=C1C=CC(O)(c2cc(=O)c3ccccc3o2)C=C1",
    "reportedResult": "1.73 µM"
  },
  {
    "compound": "COC1(c2cc(=O)c3ccccc3o2)C=CC(=O)C=C1",
    "reportedResult": "7.99 µM"
  }
]

Kindly give each listed record's IC50.
1. COc1cccc2c1C(=O)c1c(O)c3c(c(O)c1C2=O)C[C@@](O)(C(=O)CO)C[C@@H]3O[C@H]1C[C@H](N)[C@H](O)[C@H](C)O1 [DOXORUBICIN]
2. O=C1C=CC(O)(c2cc(=O)c3c(O)cc(O)cc3o2)C=C1 [PROTOAPIGENONE]
3. COCOc1cc(O)c2c(=O)cc(C3(O)C=CC(=O)C=C3)oc2c1

0.74 µM
3.74 µM
5.24 µM
